- System: P. falciparum stage V gametocytes
- Set-up: BacTiter-Glo ATP luminescence viability of purified stage V gametocytes in 384-well plates, per cent inhibition versus DMSO
- protocol_conditions: 48 h, 5 µM; inhibitor
The whole screen tested about 13,000 compounds, of which about 3,200 (25%) showed an effect of 50% or more. This is one part of the list.
property_measured: % Inhibition (%)
Output spec: scalar in %, unitless text.

In the examples that follow, each entry is paired with its recorded % Inhibition.
[[record]]
compound = "O=C(C=Cc1ccc(C(=O)Nc2ccc(C3=NCCN3)cc2)cc1)Nc1ccc(C2=NCCN2)cc1"
test_result = 61.27

[[record]]
compound = "CC(Nc1nncc(-c2cccc(F)c2)n1)c1ccc(F)cc1 (stereo not shown)"
test_result = -23.73

[[record]]
compound = "Oc1ccc2nc(N3CCNCC3)nc(NCCCc3ccccc3)c2c1"
test_result = -3.438

[[record]]
compound = "CCOC(=O)c1cc(C(=O)OC)c2ccccn12"
test_result = 4.818

[[record]]
compound = "CN(C)S(=O)(=O)n1ccc2c3c(N)nc(N)nc3ccc21"
test_result = -6.92

[[record]]
compound = "CCCCc1ccc(S(=O)(=O)Nc2ccc3c(c2)CCN(Cc2c[nH]c4cnccc24)CC3)cc1"
test_result = -5.765

[[record]]
compound = "O=S(=O)(NCCN1CCCC1)c1ccc(-c2cccc(CNCCc3cccs3)c2)s1"
test_result = 19.55

[[record]]
compound = "COc1ccc2nccc([C@@H](O)CN3CCC(NC[C@H](Cc4ccccc4)NC(=O)OC(C)(C)C)CC3)c2c1"
test_result = 28.25

[[record]]
compound = "CC(C)(C)c1ccc(S(=O)(=O)Nc2cc(Cl)ccc2Cn2ccc(N3CCNCC3)nc2=O)cc1"
test_result = 5.996

[[record]]
compound = "COc1cccc(C2C(C(=O)Nc3ccccc3)=C(C)N=c3sc(=Cc4ccc(O)cc4)c(=O)n32)c1 (stereo not shown)"
test_result = -17.06


Kindly review the next compound as well.
Look up % Inhibition for this compound: COc1ccccc1N1CCN(Cc2c(NC(C)=O)sc(C)c2C)CC1
-13.75
